target: PDGF (platelet derived growth factor); assay: filter; conditions: 5-bromo-2'-deoxyuridine (BrdU) substituted for T; 1500-fold weaker than bFGF (Table 6); Table 3 states relative KD >1000
readout: pKd
Numbers only, as −log10 of the molar value.

Exam item: Returns the measured pKd for the input sequence. Input: GGGAGGACGATGCGGGCGAAGGCACACCGAGTTCATAGTATCCCACAGACGACGAGCGGGA [06.15]
Marked response: 6.70

* * *

target: PDGF (platelet derived growth factor); assay: filter; conditions: 5-bromo-2'-deoxyuridine (BrdU) substituted for T; 53-fold weaker than bFGF
readout: Kd (nM)
Numbers only, in nM.

Exam item: Can you look up the measured Kd of GGGAGGACGATGCGGTGACGTAAGAGTGTAATCGATGCAGCCTGGCAGACGACGAGCGGGA [06.50] for me?
Marked response: 280
